AC50, Gamma-aminobutyric acid receptor subunit alpha-1 (Rattus norvegicus, UniProt P62813), per-entry values.
Where a SMILES comes first, the peptide text is derived from it. [ ]: non-standard residue; d: D form. pGlu = O=C1CC[C@@H](C(=O)O)N1; Thz = O=C(O)[C@@H]1CSCN1
Metric: AC50

                                    compound  metric  assay_result
 0  NC[C@H]1CC[C@H](C(=O)Oc2ccc(CCC(=O)O)cc2)CC1 [CETRAXATE]    AC50       > 30 µM
 1  O=C1Cc2cc(CCN3CCN(c4nsc5ccccc45)CC3)c(Cl)cc2N1    AC50       > 10 µM
 2  O=C1CC[C@@H](C(=O)N2CSC[C@H]2C(=O)O)N1 [PIDOTIMOD] ([pGlu]-[Thz]-OH)    AC50       > 30 µM
 3  COc1cc2[nH]c(C)c(CCN3CCN(c4ccccc4)CC3)c2cc1OC    AC50       > 30 µM
 4  CC(C)(Oc1ccc(CCNC(=O)c2ccc(Cl)cc2)cc1)C(=O)O [BEZAFIBRATE]    AC50       > 10 µM
 5          Oc1ccc(CCNCCCCCCNCCc2ccccc2)cc1O    AC50       > 30 µM
 6             CCC1(CCC(C)C)C(=O)NC(=O)NC1=O    AC50       > 10 µM
 7            CCCCOc1ccc(C(=O)CCN2CCCCC2)cc1    AC50       > 10 µM
 8         CCCN1CCCC[C@H]1C(=O)Nc1c(C)cccc1C    AC50       > 30 µM
 9     C/C=C(/C(=C/C)c1ccc(O)cc1)c1ccc(O)cc1    AC50       > 10 µM
10  CCC[C@@H]1C[C@@H](C(=O)N[C@@H]([C@H]2O[C@H](SC)[C@H](O)[C@@H](O)[C@H]2O)[C@@H](C)O)N(C)C1    AC50       > 10 µM
11  Cn1cc(C(=O)[C@@H]2CCc3nc[nH]c3C2)c2ccccc21    AC50       > 30 µM
